Target: human PAR-2 (hPAR-2) receptor (Homo sapiens, UniProt P55085)
Construct: endogenous in cells
Sequence (P55085 26-397): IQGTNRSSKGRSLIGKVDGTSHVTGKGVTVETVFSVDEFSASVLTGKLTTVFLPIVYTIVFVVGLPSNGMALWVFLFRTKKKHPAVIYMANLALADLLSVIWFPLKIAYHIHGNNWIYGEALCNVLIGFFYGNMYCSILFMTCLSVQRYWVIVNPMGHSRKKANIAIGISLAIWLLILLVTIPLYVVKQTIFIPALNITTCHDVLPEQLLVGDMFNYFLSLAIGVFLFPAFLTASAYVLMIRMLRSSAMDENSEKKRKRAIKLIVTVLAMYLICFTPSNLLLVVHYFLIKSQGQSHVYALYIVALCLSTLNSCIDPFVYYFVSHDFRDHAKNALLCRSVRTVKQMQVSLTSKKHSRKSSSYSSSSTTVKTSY
Assay: In vitro human PAR-2 functional antagonist activity using calcium assays
Conditions: hPAR-2 endogenously expressed in HEK-293 cells; stimulated by 2-Furoyl-LIGRLO-NH2 peptide; Fluo4AM intracellular calcium, FLIPR Tetra
pIC50: −log10 of the molar value.
# pIC50 annotations
propertyMeasured: pIC50

>>> print(df.to_string())
                                givensmiles                                testsystem        result
0  CCC1(CC)CN(c2ccc(Cl)c(F)c2)c2ccc(C(=O)N3CCN(c4cc(C)c(C(=O)O)c(C)n4)CC3(C)C)nc21  human PAR-2 (hPAR-2) receptor (Homo sapiens, UniProt P55085)        > 6.30
1  CC1(C)CC2(CN(c3ccc(Cl)c(F)c3)c3ncc(S(=O)(=O)N4CCC(N5CCNC5=O)CC4)nc32)C1  human PAR-2 (hPAR-2) receptor (Homo sapiens, UniProt P55085)        < 5.00
2  COC(=O)c1c(C)cc(N2CCN(C(=O)c3ccc4c(n3)C(C)(C)CN4c3ccccn3)C(C)(C)C2)nc1C  human PAR-2 (hPAR-2) receptor (Homo sapiens, UniProt P55085)  5.00 to 6.30
3  Cc1cc(N2CCN(C(=O)c3cnc4c(n3)C(C)(C)CN4c3ccc(Cl)c(Cl)c3)C(C)(C)C2)nc(C)c1C(=O)O  human PAR-2 (hPAR-2) receptor (Homo sapiens, UniProt P55085)        > 6.30
4  CO[C@H]1CN(C(=O)c2ccc3c(n2)C(C)(C)CN3c2ccc(Cl)c(F)c2)CC[C@H]1CC(=O)O  human PAR-2 (hPAR-2) receptor (Homo sapiens, UniProt P55085)  5.00 to 6.30

###

target: human PAR-2 (hPAR-2) receptor (Homo sapiens); construct: endogenous in cells; test: In vitro human PAR-2 functional antagonist activity using calcium assays; settings: hPAR-2 endogenously expressed in HEK-293 cells; stimulated by 2-Furoyl-LIGRLO-NH2 peptide; Fluo4AM intracellular calcium, FLIPR Tetra
pIC50: −log10 of the molar value. Structures can show the parent of a compound that is named as a salt.
# pIC50 annotations
propertyMeasured: pIC50

>>> print(df.to_string())
                                    compound        result
 0  CC1(C)CN(c2ccc(Cl)c(F)c2)c2ccc(C(=O)N3CCN(c4cncc(C(=O)O)c4)CC3(C)C)nc21        > 6.30
 1  CC1(C)CN(c2ccc(Cl)c(F)c2)c2ccc(C(=O)N3CCC4(CCNC4=O)CC3)nc21  5.00 to 6.30
 2  COc1cc2c(nc1C(=O)N1CCN(c3ccc(CC(=O)O)cn3)CC1(C)C)C(C)(C)CN2c1ccc(Cl)c(F)c1        < 5.00
 3  Cc1cc(N2CCN(C(=O)c3ccc4c(n3)C(C)(C)CN4c3ccc(C(F)(F)F)c(F)c3)C(C)(C)C2)nc(C)c1C(=O)O        > 6.30
 4  Cc1sc(N2CCN(C(=O)c3ccc4c(n3)C(C)(C)CN4c3ccc(Cl)c(F)c3)C(C)(C)C2)nc1C(=O)O [Example 73, hydrochloride]        > 6.30
 5  CC1(C)CN(c2ccc(Cl)c(F)c2)c2ccc(C(=O)N3CCC4(C3)C(=O)Nc3ccccc34)nc21 (stereo not shown)        < 5.00
 6  CN(C(=O)c1ccc2c(n1)C(C)(C)CN2c1ccc(Cl)c(F)c1)C1(C(N)=O)CC1  5.00 to 6.30
 7  CC1(C)CN(c2ccc(F)c(Cl)c2)c2ncc(C(=O)N3CCN(c4ccc(CC(=O)O)cn4)CC3(C)C)nc21        > 6.30
 8  CC1(C)CC2(CN(c3ccc(F)c(F)c3)c3ncc(C(=O)N4CCN(c5ccc(CC(=O)O)cn5)CC4(C)C)nc32)C1        > 6.30
 9  CC1(C)CN(c2ccc(Cl)c(F)c2)c2ccc(C(=O)N3CCOCC3(C)C)nc21        > 6.30
10  Cc1cc(N2CCN(C(=O)c3cnc4c(n3)C3(CN4c4ccc(F)c(F)c4)CC(C)(C)C3)C(C)(C)C2)nc(C)c1C(=O)O        > 6.30
11  CC1(C)CN(c2ccc(Cl)c(F)c2)c2ccc(C(=O)N3CCN(c4nc(C(=O)O)cs4)CC3(C)C)nc21        > 6.30
12  CC1(C)CN(c2ccc(Cl)c(F)c2)c2ccc(C(=O)N3[C@@H]4CC[C@H]3CC(CC(=O)O)C4)nc21 (mixture of isomers)  5.00 to 6.30
13  Cc1ccc(N2CC(C)(C)c3nc(C(=O)N4CCN(c5cc(C)c(C(=O)O)c(C)n5)CC4(C)C)cnc32)cc1Cl        > 6.30
14  CO[C@H]1CCC2(C1)CN(c1ccc(Cl)c(F)c1)c1ccc(C(=O)N3CCN(c4cc(C)c(C(=O)O)c(C)n4)CC3(C)C)nc12 (stereo partly shown)        > 6.30
15  CC1(C)CN(c2ccc(Cl)c(F)c2)c2ccc(C(=O)N3CCN(c4nc(C(=O)N5CCC(O)CC5)cs4)CC3(C)C)nc21        > 6.30
16  CC1(C)CN(c2ccc(F)c(F)c2)c2ccc(C(=O)N3CCNC(=O)C3(C)C)nc21        > 6.30
17  CC1(C)CN(c2ccc(Cl)c(F)c2)c2ccc(C(=O)N3CCNC(=O)CC3(C)C)nc21        > 6.30
18  CC1(C)CN(c2ccc(Cl)c(Cl)c2)c2ncc(C(=O)N3CCN(c4ccc(CC(=O)O)cn4)CC3(C)C)nc21        > 6.30

Origin of measurements: patent US20250320224A1
